ASSAYED TARGET: Histone deacetylase 2 (Homo sapiens) (UniProt Q92769)
Sequence (Q92769 whole entry, looked up): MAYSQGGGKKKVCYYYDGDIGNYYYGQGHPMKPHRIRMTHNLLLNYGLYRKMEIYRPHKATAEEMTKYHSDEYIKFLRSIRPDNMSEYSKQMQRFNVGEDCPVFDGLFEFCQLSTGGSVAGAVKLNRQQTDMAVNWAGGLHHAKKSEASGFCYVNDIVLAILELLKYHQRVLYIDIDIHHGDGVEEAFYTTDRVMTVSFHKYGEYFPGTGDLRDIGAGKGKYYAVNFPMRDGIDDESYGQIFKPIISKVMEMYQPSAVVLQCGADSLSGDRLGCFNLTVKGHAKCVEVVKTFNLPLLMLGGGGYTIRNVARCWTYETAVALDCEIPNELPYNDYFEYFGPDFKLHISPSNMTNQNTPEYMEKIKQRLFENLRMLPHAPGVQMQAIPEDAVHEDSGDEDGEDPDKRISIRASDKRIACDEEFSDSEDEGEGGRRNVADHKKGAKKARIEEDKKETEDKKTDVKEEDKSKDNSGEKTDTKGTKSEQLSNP
EXPERIMENTAL DETAILS: Inhibition of human recombinant HDAC2
pIC50: −log10 of the molar value.

COMPOUND: CC(C)n1c(-c2cccc(/C=C/C(=O)NO)c2)nc2ccccc21
pIC50: 7.10
--
COMPOUND: O=C(/C=C/c1cccc(-c2nc3ccccc3n2CCN2CCCCC2)c1)NO
pIC50: 8.00
--
COMPOUND: CCN(CC)CCn1c(-c2cccc(/C=C/C(=O)NO)c2)nc2ccccc21
pIC50: 7.51
--
COMPOUND: Cn1c(-c2cccc(/C=C/C(=O)NO)c2)nc2ccccc21
pIC50: 6.92
--
COMPOUND: Cc1nc(-c2cccc(/C=C/C(=O)NO)c2)n(CCc2ccccc2)c1C
pIC50: 8.10
--
COMPOUND: CCN1CCC[C@@H](n2c(-c3cccc(/C=C/C(=O)NO)c3)nc(C)c2-c2ccccc2)C1
pIC50: 8.10
